Hey, just so you know, these numbers are from patent US9643974B2.

target: human full-length MKNK1 (Homo sapiens, UniProt Q9BUB5, T385D); construct: purchased Carna Biosciences 02-145; host or cells: insect cells (baculovirus expression system); assay: MKNK1 kinase high ATP assay (TR-FRET-based); assay type: biochemical; details: ATP final conc. 2 mM, 15 min preincubation, 30 min reaction at 22° C.
Sequence (Q9BUB5 1-424 isoform Q9BUB5-2 T344D): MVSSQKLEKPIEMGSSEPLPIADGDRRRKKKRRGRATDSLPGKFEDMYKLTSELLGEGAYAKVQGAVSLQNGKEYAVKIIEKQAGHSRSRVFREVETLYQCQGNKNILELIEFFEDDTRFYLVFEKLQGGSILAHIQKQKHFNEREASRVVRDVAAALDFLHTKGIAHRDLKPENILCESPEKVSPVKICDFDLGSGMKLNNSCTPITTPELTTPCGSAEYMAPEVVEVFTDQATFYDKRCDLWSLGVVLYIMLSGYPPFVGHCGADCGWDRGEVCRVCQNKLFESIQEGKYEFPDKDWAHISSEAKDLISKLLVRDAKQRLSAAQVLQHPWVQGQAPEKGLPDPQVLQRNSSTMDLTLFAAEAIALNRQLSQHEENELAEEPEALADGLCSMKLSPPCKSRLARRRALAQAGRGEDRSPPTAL
Answer each item with its documented pIC50.
# reply with the number alone; pIC50 is -log10 of concentration in mol/L

Noted pIC50 for COc1nccc2oc(-c3cnc4ccc(OCC(C)(C)N)nn34)cc12 , tested on human full-length MKNK1 (Homo sapiens, UniProt Q9BUB5, T385D): 7.10

Form field pIC50 for item CCNc1nccc2oc(-c3cnc4ccc(OC[C@H](C)N)nn34)cc12 on human full-length MKNK1 (Homo sapiens, UniProt Q9BUB5, T385D): 7.89

Param item: CCOc1nccc2oc(-c3cnc4ccc(O[C@H]5C[C@H](N)C5)nn34)cc12 ; param system: human full-length MKNK1 (Homo sapiens, UniProt Q9BUB5, T385D); output pIC50: 8.40

Lab entry: human full-length MKNK1 (Homo sapiens, UniProt Q9BUB5, T385D) assay, compound CC(C)[C@H](N)COc1ccc2ncc(-c3cc4cnccc4o3)n2n1 , pIC50 = 6.51

Record N[C@H]1C[C@H](Oc2ccc3ncc(-c4cc5cnccc5o4)n3n2)C1 [Example 29] has human full-length MKNK1 (Homo sapiens, UniProt Q9BUB5, T385D) pIC50 equal to 7.80

Log: human full-length MKNK1 (Homo sapiens, UniProt Q9BUB5, T385D), compound COc1nccc2oc(-c3cnc4ccc(O[C@H](C)CN)nn34)cc12 , pIC50 = 7.43

# pIC50 measured on human full-length MKNK1 (Homo sapiens, UniProt Q9BUB5, T385D) for item COc1nccc2oc(-c3cnc4ccc(O[C@H]5CC[C@H](N)CC5)nn34)cc12 = 7.51

Bench note, human full-length MKNK1 (Homo sapiens, UniProt Q9BUB5, T385D): entry CCN(C(=O)OC(C)(C)C)c1nccc2oc(-c3cnc4ccc(OC[C@H](C)N)nn34)cc12 , its pIC50 = 6.23

Considering COc1nccc2oc(-c3cnc4ccc(OCC5(CN)COC5)nn34)cc12 , its pIC50 with human full-length MKNK1 (Homo sapiens, UniProt Q9BUB5, T385D) was recorded as 6.59

Record COc1nccc2oc(-c3cnc4ccc(OCC(CN)c5ccccc5)nn34)cc12 (stereo not drawn) ; system human full-length MKNK1 (Homo sapiens, UniProt Q9BUB5, T385D); pIC50 = 7.24

Item: N[C@H]1C[C@H](Oc2ccc3ncc(-c4cc5ncccc5o4)n3n2)C1 | System: human full-length MKNK1 (Homo sapiens, UniProt Q9BUB5, T385D) | pIC50: 7.89

Sample C[C@@H](N)COc1ccc2ncc(-c3cc4c(OC5CCC5)nccc4o3)n2n1 , system: human full-length MKNK1 (Homo sapiens, UniProt Q9BUB5, T385D). Its pIC50 is 7.59

Reading of pIC50 for CCOc1nccc2oc(-c3cnc4ccc(OC[C@@H](C)N)nn34)cc12 with human full-length MKNK1 (Homo sapiens, UniProt Q9BUB5, T385D): 7.64

The measured pIC50 that CCOc1nccc2oc(-c3cnc4ccc(OC[C@H](C)N)nn34)cc12 showed for human full-length MKNK1 (Homo sapiens, UniProt Q9BUB5, T385D) is 7.43

Let me check: C[C@H](N)COc1ccc2ncc(-c3cc4c(OCC5CC5)nccc4o3)n2n1 , system human full-length MKNK1 (Homo sapiens, UniProt Q9BUB5, T385D), measured pIC50 is 7.55
